Stability: recorded values
Test system: Liver microsomes
Protocol details: Stability in human liver microsomes
Assay type: ADME, Microsome
Just the number in %, nothing appended.

Below, 5 compounds whose answers are already recorded.
Compound	Output unit	Stability
C[S@@+]([O-])c1ccc(C2=C(c3ccccc3)C(=O)OC2)cc1	%	1
Cc1ccc(-c2ncc(Cl)cc2-c2ccc([S@@+](C)[O-])cc2)cn1	%	5
Cc1ccc(-c2ncc(Cl)cc2-c2ccc([S+](C)[O-])cc2)cn1 (configuration not stated)	%	6
C[S@+]([O-])c1ccc(C2=C(c3ccccc3)C(=O)OC2)cc1	%	4
Cc1ccc(-c2ncc(Cl)cc2-c2ccc([S@+](C)[O-])cc2)cn1	%	2

What measured Stability goes with C[S+]([O-])c1ccc(C2=C(c3ccccc3)C(=O)OC2)cc1 (configuration not stated) ? 5

# get_value(readout='Stability', item= `Cc1ccc(-c2ncc(Cl)cc2-c2ccc(S(C)(=O)=O)cc2)cn1` ) 4
